Biological target: human GLP-1R (SNAP-GLP-1R expressed in HEK293 cells) (human) (UniProt P43220)
Sequence (P43220 24-463): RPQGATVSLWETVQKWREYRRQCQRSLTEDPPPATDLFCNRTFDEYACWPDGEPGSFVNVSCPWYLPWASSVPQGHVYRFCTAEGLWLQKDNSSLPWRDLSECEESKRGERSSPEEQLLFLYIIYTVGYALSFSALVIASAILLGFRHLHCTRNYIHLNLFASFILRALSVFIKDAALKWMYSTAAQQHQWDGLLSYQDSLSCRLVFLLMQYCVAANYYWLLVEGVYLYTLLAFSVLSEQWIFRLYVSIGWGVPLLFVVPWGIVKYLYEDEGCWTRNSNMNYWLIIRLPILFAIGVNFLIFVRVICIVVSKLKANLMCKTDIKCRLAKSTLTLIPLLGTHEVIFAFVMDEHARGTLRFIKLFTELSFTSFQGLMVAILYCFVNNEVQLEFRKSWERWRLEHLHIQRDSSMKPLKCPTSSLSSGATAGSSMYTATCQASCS
Assay: cell-based or functional assay
MEASURED QUANTITY: Internalization % TOP

1) YXQGTFTSDFSQXLDKKAQXAFIEYLLEXGPSSGAPPPSGS (synthetic construct; SITE 2: note = 2-Aminoisobutyric Acid; SITE 13: note = alpha-methyl-leucine; SITE 17: note = Lysine is chemically modified through conjugation of the epsilon-amino group of the Lysine side chain with (2-[2-(2-Amino-ethoxy)-ethoxy]-acetyl)-(gamma-Glu)-CO-(CH2) 16-CO2H; SITE 20: n) [Example 151]	55%
2) YXQGTFTSDFSQXLDKKAQXAFIEYLIEXGESSGAPPPSGE (synthetic construct; SITE 2: note = 2-Aminoisobutyric Acid; SITE 13: note = alpha-methyl-leucine; SITE 17: note = Lysine is chemically modified through conjugation of the epsilon-amino group of the Lysine side chain with (2-[2-(2-Amino-ethoxy)-ethoxy]-acetyl)-(gamma-Glu)-CO-(CH2) 16-CO2H; SITE 20: n) [Example 233]	41.8%
3) YXQGTFTSDFSXXLDKKAQXAFIEWLLEGGHSSGAPPPSGE (synthetic construct; SITE 2: note = 2-Aminoisobutyric Acid; SITE 12: note = L-ornithine; SITE 13: note = alpha-methyl-leucine; SITE 17: note = Lysine is chemically modified through conjugation of the epsilon-amino group of the Lysine side chain with (2-[2-(2-Amino-ethoxy)-ethoxy]-acetyl)2-(gamma-Glu)) [Example 169]	49.4%
4) YXQGTFTSDFSXXLDKKAQXAFIEWLLEGGESSGAPPPEGS (synthetic construct; SITE 2: note = 2-Aminoisobutyric Acid; SITE 12: note = L-ornithine; SITE 13: note = alpha-methyl-leucine; SITE 17: note = Lysine is chemically modified through conjugation of the epsilon-amino group of the Lysine side chain with (2-[2-(2-Amino-ethoxy)-ethoxy]-acetyl)-(gamma-Glu)) [Example 125]	42.6%
5) YXQGTFTSDFSXXLDKKAQXAFIEYLLEXGXSSGAPPPSGE (synthetic construct; SITE 2: note = 2-Aminoisobutyric Acid; SITE 12: note = L-ornithine; SITE 13: note = alpha-methyl-leucine; SITE 17: note = Lysine is chemically modified through conjugation of the epsilon-amino group of the Lysine side chain with (2-[2-(2-Amino-ethoxy)-ethoxy]-acetyl)2-(gamma-Glu)) [Example 189]	45.8%
6) YXQGTFTSDFSXXLDKKAQXAFIEYLLEXGPSSGEPPPSGS (synthetic construct; SITE 2: note = 2-Aminoisobutyric Acid; SITE 12: note = L-ornithine; SITE 13: note = alpha-methyl-leucine; SITE 17: note = Lysine is chemically modified through conjugation of the epsilon-amino group of the Lysine side chain with (2-[2-(2-Amino-ethoxy)-ethoxy]-acetyl)2-(gamma-Glu)) [Example 166]	44.2%

# credit: patent US20240270821A1
